Molecular target: Mucolipin-3 (Homo sapiens)
Experiment: human TRPML3 channel agonists, confirmation, cell-based, HEK293 TRPML3-YFP, Fluo-8 calcium, triplicate (AID 1526)
Conditions: Fluo-8 calcium fluorescence, at 3 µM, active compounds read high, 100% set by carbachol, 0% by DMSO
Some of the results follow.
Parameter: activation (%)
Expressed in %, but write only the number.

Example entries begin here.
CC1=CC(C)(C)N(C(=O)CSc2nnc(-c3ccccc3)o2)c2ccc(C)cc21	48.3
COc1ccc(S(=O)(=O)N2CCCC2)c(C)c1C	13.6
COc1cc(/C=C(\C#N)c2nc3c(s2)CC(C)CC3)ccc1O (centres undefined)	6.5

Shifting focus to the compound that follows.
The compound identified as COc1ccc(-c2noc(CN(C)S(=O)(=O)c3ccc(C)cc3)n2)cc1 registered its activation at 111
